- tgt: human GnRH receptor (Homo sapiens, UniProt P30968)
- Construct: The cDNA for the human GnRH receptor is cloned into the plasmid expression vector, pcDNA 3; expressed in transfected cells; host or cells: HEK 293 cells, stably transfected (pcDNA 3); membrane preparation
- Sequence (P30968 whole entry): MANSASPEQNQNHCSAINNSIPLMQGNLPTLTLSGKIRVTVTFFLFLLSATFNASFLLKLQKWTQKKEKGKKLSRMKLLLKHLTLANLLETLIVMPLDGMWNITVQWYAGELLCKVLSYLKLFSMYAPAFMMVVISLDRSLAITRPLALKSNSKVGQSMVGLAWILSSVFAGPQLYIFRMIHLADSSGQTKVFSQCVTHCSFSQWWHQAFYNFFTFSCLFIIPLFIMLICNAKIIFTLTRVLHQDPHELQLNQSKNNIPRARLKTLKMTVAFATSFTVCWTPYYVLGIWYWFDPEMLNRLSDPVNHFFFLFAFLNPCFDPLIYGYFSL
- assayExplanation: GnRH receptor competitive radioligand binding assay (125I-GnRH-A, HEK 293 cell membranes)
- statedConditions: compound at 10 μM; crude compounds; 125I-GnRH-A; lower value = higher inhibition; read-out: % Remaining 2nd Test (percent of specific binding remaining)

{"compound": "Cc1cc2c(cc1CN(CC1CCC(CNC(=N)N)CC1)C(=O)COCc1ccccc1)C(C)(C)CCC2(C)C (stereo not shown)", "remaining activity at 10 µM, %": 25}
{"compound": "CC(C)(C)c1ccc(CN(CC2CCCC(CNC(=N)N)C2)C(=O)c2ccc3ccccc3c2)cc1 (stereo not shown)", "remaining activity at 10 µM, %": 62}
{"compound": "CN(C)COc1ccc(CN(CC2CCC(CNC(=N)N)CC2)C(=O)c2cc3ccccc3s2)cc1 (stereo not shown)", "remaining activity at 10 µM, %": 48}
{"compound": "CC(C)(C)c1ccc(CN(CC2CCCC(CNC(=N)N)C2)C(=O)c2cccc3ccccc23)cc1 (stereo not shown)", "remaining activity at 10 µM, %": 43}
{"compound": "N=C(N)NCc1ccc(CN(CC23CC=CCC2C2CC=CCC2O3)C(=O)c2ccco2)cc1 (stereo not shown)", "remaining activity at 10 µM, %": 55}
{"compound": "Cc1cc2c(cc1CN(CC1CCC(CNC(=N)N)CC1)C(=O)c1ccc(C#N)cc1)C(C)(C)CCC2(C)C (stereo not shown)", "remaining activity at 10 µM, %": 58}
{"compound": "Cc1cc2c(cc1CN(CCCCNC(=N)N)C(=O)c1ccc3ccccc3c1)C(C)(C)CCC2(C)C", "remaining activity at 10 µM, %": 61}

---

- tgt: human GnRH receptor (Homo sapiens)
- Construct: The cDNA for the human GnRH receptor is cloned into the plasmid expression vector, pcDNA 3; expressed in transfected cells; host or cells: HEK 293 cells, stably transfected (pcDNA 3); membrane preparation
- assayExplanation: GnRH receptor competitive radioligand binding assay (125I-GnRH-A, HEK 293 cell membranes)
- statedConditions: compound at 10 μM; average of 1st and 2nd test; read-out: Average % Remaining (percent of specific binding remaining)

{"molecule": "CN(C)CCCOc1ccc(CN(CC2CCCC(CNC(=N)N)C2)C(=O)c2ccc3ccccc3c2)cc1 (centres unmarked)", "tgt": "human GnRH receptor (Homo sapiens)", "remaining activity at 10 µM": "49%"}
{"molecule": "CN(C)CCCOc1ccc(CN(Cc2cccc(CNC(=N)N)c2)C(=O)c2ccc3ccccc3c2)cc1", "tgt": "human GnRH receptor (Homo sapiens)", "remaining activity at 10 µM": "58%"}
{"molecule": "N=C(N)NCCCCN(Cc1ccc(OCc2ccccc2)c(OCc2ccccc2)c1)C(=O)c1cccc2ccccc12", "tgt": "human GnRH receptor (Homo sapiens)", "remaining activity at 10 µM": "51%"}
{"molecule": "N=C(N)NCC1CCC(CN(Cc2cccc(Oc3ccc(Cl)cc3)c2)C(=O)C2CCCC2)CC1 (centres unmarked)", "tgt": "human GnRH receptor (Homo sapiens)", "remaining activity at 10 µM": "52%"}
{"molecule": "Cc1cc2c(cc1CN(CC1CCC(CNC(=N)N)CC1)C(=O)c1ccco1)C(C)(C)CCC2(C)C (centres unmarked)", "tgt": "human GnRH receptor (Homo sapiens)", "remaining activity at 10 µM": "-4%"}
{"molecule": "N=C(N)NCc1cccc(CN(CC23CC=CCC2C2CC=CCC2O3)C(=O)c2cccc3ccccc23)c1 (centres unmarked)", "tgt": "human GnRH receptor (Homo sapiens)", "remaining activity at 10 µM": "57%"}
{"molecule": "N=C(N)NCC1CCCC(CN(Cc2ccc3c(c2)OCCO3)C(=O)c2cccc3ccccc23)C1 (centres unmarked)", "tgt": "human GnRH receptor (Homo sapiens)", "remaining activity at 10 µM": "55%"}
{"molecule": "CC(=O)N(Cc1ccc(CNC(=N)N)cc1)Cc1cc2c(cc1C)C(C)(C)CCC2(C)C", "tgt": "human GnRH receptor (Homo sapiens)", "remaining activity at 10 µM": "59%"}

Data provenance is patent US6646137B1.
